Molecular target: Protein deacetylase HDAC6 (Homo sapiens, UniProt Q9UBN7)
Sequence (Q9UBN7 whole entry): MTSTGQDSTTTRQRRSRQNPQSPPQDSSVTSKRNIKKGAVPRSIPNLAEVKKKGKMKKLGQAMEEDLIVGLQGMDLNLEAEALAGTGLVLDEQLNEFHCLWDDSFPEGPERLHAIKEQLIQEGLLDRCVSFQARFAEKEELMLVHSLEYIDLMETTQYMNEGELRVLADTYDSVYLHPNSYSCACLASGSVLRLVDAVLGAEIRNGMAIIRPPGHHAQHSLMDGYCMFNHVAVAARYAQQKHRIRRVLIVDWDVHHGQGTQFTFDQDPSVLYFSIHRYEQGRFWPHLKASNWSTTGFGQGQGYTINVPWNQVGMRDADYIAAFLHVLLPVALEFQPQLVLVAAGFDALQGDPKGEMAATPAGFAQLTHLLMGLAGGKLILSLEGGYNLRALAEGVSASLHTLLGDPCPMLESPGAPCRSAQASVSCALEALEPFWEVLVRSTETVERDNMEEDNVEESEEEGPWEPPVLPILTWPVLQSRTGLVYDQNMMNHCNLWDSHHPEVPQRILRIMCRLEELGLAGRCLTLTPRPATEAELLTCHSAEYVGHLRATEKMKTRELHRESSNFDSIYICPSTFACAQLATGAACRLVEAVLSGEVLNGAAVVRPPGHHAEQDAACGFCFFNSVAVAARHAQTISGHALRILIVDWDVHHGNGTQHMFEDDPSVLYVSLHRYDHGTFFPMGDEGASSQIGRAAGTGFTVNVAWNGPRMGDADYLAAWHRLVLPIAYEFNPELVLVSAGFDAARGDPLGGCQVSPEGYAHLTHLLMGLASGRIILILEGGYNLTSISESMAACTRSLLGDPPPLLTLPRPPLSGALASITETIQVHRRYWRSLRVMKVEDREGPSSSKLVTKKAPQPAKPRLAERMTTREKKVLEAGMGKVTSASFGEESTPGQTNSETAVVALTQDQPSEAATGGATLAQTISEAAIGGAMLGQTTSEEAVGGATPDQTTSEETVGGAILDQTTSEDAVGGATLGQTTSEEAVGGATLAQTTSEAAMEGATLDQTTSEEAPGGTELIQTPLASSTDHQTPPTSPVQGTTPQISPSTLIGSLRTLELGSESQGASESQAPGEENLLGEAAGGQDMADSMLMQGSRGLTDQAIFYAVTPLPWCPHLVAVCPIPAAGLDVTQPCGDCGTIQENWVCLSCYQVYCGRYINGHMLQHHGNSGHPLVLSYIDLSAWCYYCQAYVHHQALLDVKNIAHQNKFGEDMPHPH
Test: Inhibition of recombinant human HDAC6 using fluorogenic substrate by fluorescence assay
resultType: pIC50
Remember the convention: pIC50 equals -log10 of concentration in molar.

Guide cases for pIC50, answers given:
So, `COc1ccc2c(C(=O)c3cc(OC)c(OC)c(OC)c3)cn(Cc3ccc(C(=O)NO)cc3)c2c1` ? Its pIC50 was 7.19

// `COc1ccc(C(=O)c2cn(Cc3ccc(C(=O)NO)cc3)c3cc(OC)ccc23)cc1` : pIC50 value = 6.96

// moving on: another record for pIC50
response.value for `COc1ccc2c(C(=O)c3cc(OC)c(OC)c(OC)c3)cn(S(=O)(=O)c3cccc(/C=C/C(=O)NO)c3)c2c1` (field: pIC50) = 6.56

---

target: Histone deacetylase 2 (Homo sapiens, UniProt Q92769); assay: Inhibition of recombinant human HDAC2 using fluorogenic substrate by fluorescence assay
Sequence (Q92769 whole entry): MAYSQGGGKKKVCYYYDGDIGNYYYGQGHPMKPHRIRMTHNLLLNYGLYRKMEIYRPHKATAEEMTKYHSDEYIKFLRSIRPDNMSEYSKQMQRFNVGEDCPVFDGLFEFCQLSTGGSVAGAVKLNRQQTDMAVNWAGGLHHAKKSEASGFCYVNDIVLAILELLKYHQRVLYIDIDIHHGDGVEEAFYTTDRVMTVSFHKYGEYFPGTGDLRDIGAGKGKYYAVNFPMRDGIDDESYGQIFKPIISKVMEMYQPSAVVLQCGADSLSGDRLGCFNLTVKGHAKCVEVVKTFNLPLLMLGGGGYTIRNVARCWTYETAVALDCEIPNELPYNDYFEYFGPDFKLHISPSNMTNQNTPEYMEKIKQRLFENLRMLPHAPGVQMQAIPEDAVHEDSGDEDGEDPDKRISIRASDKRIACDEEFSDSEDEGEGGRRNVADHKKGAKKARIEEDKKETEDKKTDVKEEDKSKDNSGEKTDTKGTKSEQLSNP
log10(IC50) by entry:
Values are log10 of IC50 in nM.

Worked examples, 5 molecules total:
For record `COc1ccc2c(C(=O)c3cc(OC)c(OC)c(OC)c3)cn(S(=O)(=O)c3cccc(/C=C/C(=O)NO)c3)c2c1` the listed log10(IC50) is 3.51

What the record says about `COc1cc(C(=O)c2cn(S(=O)(=O)c3cccc(/C=C/C(=O)NO)c3)c3ccccc23)cc(OC)c1OC` : log10(IC50) is 3.37

Measured log10(IC50), `COc1cc(C(=O)c2cn(Cc3ccc(/C=C/C(=O)NO)cc3)c3ccccc23)cc(OC)c1OC` : 2.59

Consider `COc1ccc2c(C(=O)c3cc(OC)c(OC)c(OC)c3)cn(Cc3ccc(C(=O)NO)cc3)c2c1` . Its measured log10(IC50) is 3.15

Form: molecule = `COc1ccc2c(C(=O)c3cc(OC)c(OC)c(OC)c3)cn(Cc3ccc(/C=C/C(=O)NO)cc3)c2c1` ; log10(IC50) = 2.46

For the next question, use this molecule.
For record `COc1ccc(C(=O)c2cn(Cc3ccc(C(=O)NO)cc3)c3cc(OC)ccc23)cc1` the listed log10(IC50) is 2.32
